tested target: Type II 5α-Reductase from Human Prostate (Homo sapiens)
Construct: The same procedure as above was used for preparations using tissue from prostate surgery; from tissue; host or cells: human prostate tissue from surgery, homogenate, 100,000×g pellet
assay details: Human Type II 5α-reductase assay (conversion of [3H]-testosterone to 5α-reduced metabolites)
Format: biochemical
assay setup: pH 5.5, 0.3 μM; sodium acetate pH 5.5, 25°, 30 min; compared to control reaction mixtures; read-out: percent inhibition of Type II AR
I'd appreciate it if you could supply inhibition at 0.3 µM values for the items below.
Answer with a number only, understood to be in %.

Bench note: what inhibition at 0.3 µM did CN1C(=O)CC[C@]2(C)c3ccc(-c4ccc(NC(=O)C(C)(C)C)cc4)cc3CC[C@@H]12 show?
58

Bench note: what inhibition at 0.3 µM did CN1C(=O)CC[C@]2(C)c3ccc(-c4ccc(C(N)=O)cc4)cc3CC[C@@H]12 show?
28

Bench note: what inhibition at 0.3 µM did COc1ccc(Sc2ccc3c(c2)CC[C@H]2NC(=O)CC[C@]32C)cc1 show?
22

Bench note: what inhibition at 0.3 µM did CN1C(=O)CC[C@]2(C)c3ccc(-c4ccc(C(=O)CCCCl)cc4)cc3CC[C@@H]12 show?
26

----------
tested target: Type II 5α-Reductase from Human Prostate (Homo sapiens, UniProt P31213)
Construct: The same procedure as above was used for preparations using tissue from prostate surgery; from tissue; host or cells: human prostate tissue from surgery, homogenate, 100,000×g pellet
Sequence (P31213 whole entry): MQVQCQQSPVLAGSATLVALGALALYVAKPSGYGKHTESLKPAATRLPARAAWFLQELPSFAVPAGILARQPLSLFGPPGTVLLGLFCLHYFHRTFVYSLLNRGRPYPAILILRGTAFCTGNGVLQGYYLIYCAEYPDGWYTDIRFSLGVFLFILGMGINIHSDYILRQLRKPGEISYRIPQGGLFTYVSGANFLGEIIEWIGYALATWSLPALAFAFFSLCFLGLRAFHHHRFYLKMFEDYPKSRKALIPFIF
assay details: Human Type II 5α-reductase assay (conversion of [3H]-testosterone to 5α-reduced metabolites)
Assay type: biochemical
assay setup: pH 5.5, 0.3 μM; sodium acetate pH 5.5, 25°, 30 min; compared to control reaction mixtures; read-out: percent inhibition of Type II AR
I'd appreciate it if you could supply inhibition at 0.3 µM values for the items below.
Answer with a number only, understood to be in %.

Bench note: what inhibition at 0.3 µM did CCN(CC)C(=O)c1c(-c2ccc3c(c2)CC[C@H]2N(C)C(=O)CC[C@]32C)ccc2ccccc12 show?
27

Bench note: what inhibition at 0.3 µM did CN1C(=O)CC[C@]2(C)c3ccc(-c4cc(F)cc(F)c4F)cc3CC[C@@H]12 show?
29

Bench note: what inhibition at 0.3 µM did CN1C(=O)CC[C@]2(C)c3ccc(Sc4cccc(F)c4)cc3CC[C@@H]12 show?
25

Bench note: what inhibition at 0.3 µM did CN1C(=O)CC[C@]2(C)c3ccc(CSc4ccccc4)cc3CC[C@@H]12 show?
37

Bench note: what inhibition at 0.3 µM did CN1C(=O)CC[C@]2(C)c3ccc(-c4ccccc4Cl)cc3CC[C@@H]12 show?
18

Bench note: what inhibition at 0.3 µM did CN1C(=O)CC[C@]2(C)c3ccc(-c4ccc([N+](=O)[O-])cn4)cc3CC[C@@H]12 show?
48

Bench note: what inhibition at 0.3 µM did CN1C(=O)CC[C@]2(C)c3ccc(-c4cc(F)ccc4F)cc3CC[C@@H]12 show?
11

Bench note: what inhibition at 0.3 µM did CN1C(=O)CC[C@]2(C)c3ccc(-c4cc(Cl)sc4Cl)cc3CC[C@@H]12 show?
24

Bench note: what inhibition at 0.3 µM did CN1C(=O)CC[C@]2(C)c3ccc(Sc4ccc5cc([N+](=O)[O-])ccc5n4)cc3CC[C@@H]12 show?
41

Bench note: what inhibition at 0.3 µM did Cc1ccc(-c2ccc3c(c2)CC[C@H]2N(C)C(=O)CC[C@]32C)cc1 show?
14

Bench note: what inhibition at 0.3 µM did CN1C(=O)CC[C@]2(C)c3ccc(NC(=O)c4ccc(N)cc4)cc3CC[C@@H]12 show?
36

Bench note: what inhibition at 0.3 µM did CN1C(=O)CC[C@]2(C)c3ccc(NC(=O)c4ccccc4)cc3CC[C@@H]12 show?
51

Bench note: what inhibition at 0.3 µM did CCCN(CC1CC1)c1ccc(-c2ccc3c(c2)CC[C@H]2N(C)C(=O)CC[C@]32C)c2ccccc12 show?
37

Bench note: what inhibition at 0.3 µM did CN1C(=O)CC[C@]2(C)c3ccc(-c4ccc5oc(=O)ccc5c4)cc3CC[C@@H]12 show?
22

Bench note: what inhibition at 0.3 µM did CN(C)c1cccc2c(S(=O)(=O)Nc3cccc(-c4ccc5c(c4)CC[C@H]4N(C)C(=O)CC[C@]54C)c3)cccc12 show?
32

Bench note: what inhibition at 0.3 µM did CN1C(=O)CC[C@]2(C)c3ccc(-c4ccccc4)cc3CC[C@@H]12 show?
4

Bench note: what inhibition at 0.3 µM did CN1C(=O)CC[C@]2(C)c3ccc(-c4c(F)cc(F)cc4F)cc3CC[C@@H]12 show?
29

Bench note: what inhibition at 0.3 µM did CN1C(=O)CC[C@]2(C)c3ccc(Oc4ccc5ccccc5n4)cc3CC[C@@H]12 show?
44

Bench note: what inhibition at 0.3 µM did CN1C(=O)CC[C@]2(C)c3ccc(Sc4cccc5cccnc45)cc3CC[C@@H]12 show?
73

Bench note: what inhibition at 0.3 µM did CN1C(=O)CC[C@]2(C)c3ccc(Sc4nnnn4-c4ccccc4)cc3CC[C@@H]12 show?
25

Bench note: what inhibition at 0.3 µM did CN1C(=O)CC[C@]2(C)c3ccc(-c4ccc5c(c4)C(=O)C(=O)N5)cc3CC[C@@H]12 show?
24

Bench note: what inhibition at 0.3 µM did CN1C(=O)CC[C@]2(C)c3ccc(-c4ccccc4C#N)cc3CC[C@@H]12 show?
36

Bench note: what inhibition at 0.3 µM did CCCCc1ccc(-c2ccc3c(c2)CC[C@H]2N(C)C(=O)CC[C@]32C)cc1 show?
46

Bench note: what inhibition at 0.3 µM did CN1C(=O)CC[C@]2(C)c3ccc(Sc4ccccn4)cc3CC[C@@H]12 show?
38

----------
tested target: Type II 5α-Reductase from Human Prostate (Homo sapiens)
Construct: The same procedure as above was used for preparations using tissue from prostate surgery; from tissue; host or cells: human prostate tissue from surgery, homogenate, 100,000×g pellet
assay details: Human Type II 5α-reductase assay (conversion of [3H]-testosterone to 5α-reduced metabolites)
Format: biochemical
assay setup: pH 5.5, 0.3 μM; sodium acetate pH 5.5, 25°, 30 min; compared to control reaction mixtures; read-out: percent inhibition of Type II AR
parameter: inhibition at 0.3 µM (%)
Answer with a number only, understood to be in %.

Recall the recorded inhibition at 0.3 µM for CN1C(=O)CC[C@]2(C)c3ccc(-c4ccc(F)c5ccccc45)cc3CC[C@@H]12 [Example 64] with Type II 5α-Reductase from Human Prostate (Homo sapiens) and state it.
22

Recall the recorded inhibition at 0.3 µM for CN1C(=O)CC[C@]2(C)c3ccc(-c4ccc(F)c(C(F)(F)F)c4)cc3CC[C@@H]12 [Example 46] with Type II 5α-Reductase from Human Prostate (Homo sapiens) and state it.
31

Recall the recorded inhibition at 0.3 µM for Cc1cc(C)cc(-c2ccc3c(c2)CC[C@H]2N(C)C(=O)CC[C@]32C)c1 [Example 83] with Type II 5α-Reductase from Human Prostate (Homo sapiens) and state it.
12

Recall the recorded inhibition at 0.3 µM for CN1C(=O)CC[C@]2(C)c3ccc(-c4ccc(S(N)(=O)=O)cc4)cc3CC[C@@H]12 [Example 220] with Type II 5α-Reductase from Human Prostate (Homo sapiens) and state it.
26

----------
I'd appreciate it if you could supply inhibition at 0.3 µM values for the items below.
tested target: Type I 5α-Reductase from Human Scalp (Homo sapiens, UniProt P18405)
Construct: Scalp punch biopsies from graft recipient sites were obtained from human hair transplant procedures; from tissue; host or cells: human scalp punch biopsies (hair transplant graft recipient sites), homogenate, 100,000×g pellet
Sequence (P18405 1-259): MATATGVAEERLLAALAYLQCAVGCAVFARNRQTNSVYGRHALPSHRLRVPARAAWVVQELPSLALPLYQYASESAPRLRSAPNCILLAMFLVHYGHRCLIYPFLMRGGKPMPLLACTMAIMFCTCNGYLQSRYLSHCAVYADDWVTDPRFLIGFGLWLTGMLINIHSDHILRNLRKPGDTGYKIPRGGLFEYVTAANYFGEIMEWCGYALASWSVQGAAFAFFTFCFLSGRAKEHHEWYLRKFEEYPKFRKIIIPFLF
assay details: Human Type I 5α-reductase assay (conversion of [3H]-testosterone to 5α-reduced metabolites)
Assay type: biochemical
assay setup: pH 7.5, 0.3 μM; 50 nM [3H]-testosterone, pH 7.5, 25°, 180 min; compared to control reaction mixtures; read-out: percent inhibition of Type I AR
Answer with a number only, understood to be in %.

Bench note: what inhibition at 0.3 µM did CN1C(=O)CC[C@]2(C)c3ccc(Sc4nc5c(F)cccc5s4)cc3CC[C@@H]12 show?
79

Bench note: what inhibition at 0.3 µM did CN1C(=O)CC[C@]2(C)c3ccc(-c4ccc(COc5ccccc5)s4)cc3CC[C@@H]12 show?
85

Bench note: what inhibition at 0.3 µM did CN1C(=O)CC[C@]2(C)c3ccc(-c4cccc(NC(c5ccccc5)c5ccccc5)c4)cc3CC[C@@H]12 show?
86

Bench note: what inhibition at 0.3 µM did CN1C(=O)CC[C@]2(C)c3ccc(-c4cc(F)cc(C(F)(F)F)c4)cc3CC[C@@H]12 show?
78

Bench note: what inhibition at 0.3 µM did CN(C)CCN1C(=O)c2cccc3c(-c4ccc5c(c4)CC[C@H]4N(C)C(=O)CC[C@]54C)ccc(c23)C1=O show?
71
